ASSAY_SYSTEM: human GLP1R (Homo sapiens)
Construct: expressed in transfected cells; host or cells: CHO cells (ATCC), transient transfection with pCMV-human GLP1R
PROCEDURE_TEXT: Human GLP-1 receptor transfected cell assay (MRE/CRE-luciferase reporter gene, agonist activity)
Format: cell-based
MEASUREMENT_CONTEXT: 6 h; concentration 10 μM; read-out: Activity (agonist), percentage of the activity of the control
Protocol: The glucagon-like peptide I receptor (GLP1R) is a class B Gs-coupled membrane receptor, an agonist of which activates adenylate cyclase (AC) and elevates intracellular cAMP level. […] Before transfection, CHO cells were plated into a 6-well culture plate at 800,000/2 mL/well, and cultured at 37° C. in 5% CO2 overnight. […] The activity of luciferase was detected using BRIGHT-GLO™ Luciferase Analytic System, and the reading was performed with a Flexstation3 plate reader machine.
VALUE_TYPE: activation at 10 µM

>>> assay_result("Cc1ccc(-c2cccc(C(=O)NC(Cc3ccc(-c4noc(-c5ccc(NC(=O)OC(C)(C)C)cc5)n4)c(F)c3)C(=O)O)n2)cc1 (stereo not drawn)")
"10 to 20%"

QUERY: Find the recorded activation at 10 µM belonging to CC(C)c1ccc(-n2cnc(C(=O)NC(Cc3ccc(-c4noc(-c5ccc(NC(=O)OC(C)(C)C)cc5)n4)c(F)c3)C(=O)O)n2)cc1 (stereo not drawn) and report it.
RESULT: > 60%

QUERY: Find the recorded activation at 10 µM belonging to Cc1ccc(-c2ccc(C(=O)N[C@H](Cc3ccc(/C=C/c4ccc(NC(=O)OC(C)(C)C)cc4)c(F)c3)C(=O)O)o2)cc1 and report it.
RESULT: > 60%

QUERY: Find the recorded activation at 10 µM belonging to CC(C)(C)OC(=O)Nc1ccc(-c2nc(-c3ccc(CC(NC(=O)c4cc(-c5ccccc5)cs4)C(=O)O)cc3F)no2)cc1 (stereo not drawn) and report it.
RESULT: 40 to 60%

QUERY: Find the recorded activation at 10 µM belonging to Cc1ccc(-c2ccc(C(=O)NC(Cc3cc(F)c(-c4noc(-c5ccc(NC(=O)OC(C)(C)C)cc5)n4)c(F)c3)C(=O)O)o2)cc1 (stereo not drawn) and report it.
RESULT: > 60%

QUERY: Find the recorded activation at 10 µM belonging to CC(C)(C)OC(=O)Nc1ccc(-c2nc(-c3ccc(CC(NC(=O)Nc4ccc(-c5ccc(F)cc5)cn4)C(=O)O)cc3F)no2)cc1 (stereo not drawn) and report it.
RESULT: > 60%

====

ASSAY_SYSTEM: human GLP1R (Homo sapiens, UniProt P43220)
Construct: expressed in transfected cells; host or cells: CHO cells (ATCC), transient transfection with pCMV-human GLP1R
Sequence (P43220 24-463): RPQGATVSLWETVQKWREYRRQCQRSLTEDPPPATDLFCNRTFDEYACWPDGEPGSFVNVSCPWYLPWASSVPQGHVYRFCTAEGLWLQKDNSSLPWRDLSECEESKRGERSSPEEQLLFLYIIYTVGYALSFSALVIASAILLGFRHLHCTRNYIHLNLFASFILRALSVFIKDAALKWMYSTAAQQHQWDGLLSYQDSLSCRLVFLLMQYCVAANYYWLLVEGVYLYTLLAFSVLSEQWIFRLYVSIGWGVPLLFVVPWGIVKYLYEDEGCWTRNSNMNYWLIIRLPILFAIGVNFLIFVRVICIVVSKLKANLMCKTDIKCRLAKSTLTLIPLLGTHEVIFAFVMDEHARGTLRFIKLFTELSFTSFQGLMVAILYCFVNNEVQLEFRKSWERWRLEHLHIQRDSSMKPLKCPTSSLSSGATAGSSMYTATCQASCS
PROCEDURE_TEXT: Human GLP-1 receptor transfected cell assay (MRE/CRE-luciferase reporter gene, agonist activity)
Type: cell-based
MEASUREMENT_CONTEXT: 6 h; concentration 3.16 μM; read-out: Activity (agonist), percentage of the activity of the control
Known activation at 3.16 µM of a selection of compounds

Consider the following illustrative entries.
>>> assay_result("Cc1ccc(-c2cccc(C(=O)N[C@H](Cc3ccc(-c4noc(-c5ccc(NC(=O)OC(C)(C)C)cc5)n4)c(F)c3)C(=O)O)c2)cc1Cl [Compound 6H]")
"> 60%"
>>> assay_result("CC(C)(C)OC(=O)Nc1ccc(-c2nc(-c3ccc(CC(NC(=O)Nc4ccc(Br)nc4)C(=O)O)cc3F)no2)cc1 (centres unmarked) [Compound 4N]")
"20 to 40%"
>>> assay_result("CC(C)c1ccc(-c2cccc(C(=O)NC(Cc3ccc(-c4noc(-c5ccc(NC(=O)OC(C)(C)C)cc5)n4)c(F)c3)C(=O)O)c2)cc1 (centres unmarked) [Compound 2K]")
"> 60%"
>>> assay_result("CC(C)(C)OC(=O)Nc1ccc(-c2nc(-c3ccc(CC(NC(=O)c4cccc(-c5ccc(C#N)cc5)c4F)C(=O)O)cc3F)no2)cc1 (centres unmarked) [Compound 2J]")
"> 60%"
>>> assay_result("CC(C)(C)OC(=O)Nc1ccc(-c2nc(-c3ccc(CC(NC(=O)N4CCN(C(=O)OC(C)(C)C)CC4)C(=O)O)cc3F)no2)cc1 (centres unmarked) [Compound 4F]")
"40 to 60%"

QUERY: For human GLP1R (Homo sapiens, UniProt P43220), provide activation at 3.16 µM of CC(C)(C)OC(=O)Nc1ccc(/C=C/c2ccc(CC(NC(=O)c3ccc(NC(=O)OC(C)(C)C)cc3)C(=O)O)cc2F)cc1 (centres unmarked) [Compound 5R] please.
RESULT: 40 to 60%

QUERY: For human GLP1R (Homo sapiens, UniProt P43220), provide activation at 3.16 µM of Cc1cc(-c2nc(C(=O)NC(Cc3ccc(-c4noc(-c5ccc(NC(=O)OC(C)(C)C)cc5)n4)c(F)c3)C(=O)O)c[nH]2)ccc1F (centres unmarked) [Compound 2Q] please.
RESULT: > 60%

QUERY: For human GLP1R (Homo sapiens, UniProt P43220), provide activation at 3.16 µM of Cc1ccc(NC(=O)NC(Cc2ccc(-c3noc(-c4ccc(NC(=O)OC(C)(C)C)cc4)n3)c(F)c2)C(=O)O)cc1 (centres unmarked) [Compound 4M] please.
RESULT: > 60%

====

ASSAY_SYSTEM: human GLP1R (Homo sapiens, UniProt P43220)
Construct: expressed in transfected cells; host or cells: CHO cells (ATCC), transient transfection with pCMV-human GLP1R
PROCEDURE_TEXT: Human GLP-1 receptor transfected cell assay (MRE/CRE-luciferase reporter gene, agonist activity)
Assay type: cell-based
MEASUREMENT_CONTEXT: 6 h; concentration 1 μM; read-out: Activity (agonist), percentage of the activity of the control
VALUE_TYPE: activation at 1 µM

Consider the following illustrative entries.
>>> assay_result("Cc1ccc(-c2ccc(C(=O)NC(Cc3ccc(-c4noc(-c5ccc(NC(=O)OC(C)C)cc5)n4)c(F)c3)C(=O)O)o2)cc1 (stereo not drawn)")
"40 to 60%"
>>> assay_result("Cc1ccc(-c2ccc(C(=O)N[C@H](Cc3ccc(-c4noc(-c5ccc(NC(=O)OC(C)(C)C)cc5)n4)c(C)c3)C(=O)O)o2)cc1")
"> 60%"

Then there is this compound:
QUERY: Find the recorded activation at 1 µM belonging to CC(C)(C)OC(=O)Nc1ccc(-c2nc(-c3ccc(CC(NC(=O)c4cc(-c5ccc(Cl)cc5F)c[nH]4)C(=O)O)cc3F)no2)cc1 (stereo not drawn) and report it.
RESULT: 20 to 40%

====

Known activation at 10 µM of a selection of molecules
ASSAY_SYSTEM: human GLP1R (Homo sapiens)
Construct: expressed in transfected cells; host or cells: CHO cells (ATCC), transient transfection with pCMV-human GLP1R
PROCEDURE_TEXT: Human GLP-1 receptor transfected cell assay (MRE/CRE-luciferase reporter gene, agonist activity)
Type: cell-based
MEASUREMENT_CONTEXT: 6 h; conc. 10 μM; percentage of the activity of the control; read-out: Agonist Activity

Consider the following illustrative entries.
>>> assay_result("CN1CCN(c2ccc(C(=O)NC(Cc3ccc(-c4noc(-c5ccc(NC(=O)OC(C)(C)C)cc5)n4)c(F)c3)C(=O)O)o2)CC1 (stereo not drawn) [Compound 11U]")
"20 to 40%"
>>> assay_result("CC(C)(C)OC(=O)Nc1ccc(-c2nc(-c3ccc(CC(NC(=O)c4cn(-c5ccc(C(C)(C)C)cc5)nn4)C(=O)O)cc3F)no2)cc1 (stereo not drawn) [Compound 11V]")
"> 60%"
>>> assay_result("CC(C)(C)OC(=O)Nc1ccc(-c2nc(-c3ccc(CC(NS(=O)(=O)c4ccc(-c5ccccc5)cc4)C(=O)O)cc3F)no2)cc1 (stereo not drawn) [Compound 11K]")
"> 60%"
>>> assay_result("CC(C)(C)OC(=O)Nc1ccc(-c2nc(-c3ccc(CC(NC(=O)N4CCN(c5ccc(C(F)(F)F)cc5)CC4)C(=O)O)cc3F)no2)cc1 (stereo not drawn) [Compound 12A]")
"> 60%"
>>> assay_result("CC(C)(C)OC(=O)Nc1ccc(-c2nc(-c3ccc(CC(NC(=O)c4ccc(-c5ccc([N+](=O)[O-])cc5)o4)C(=O)O)cc3F)no2)cc1 (stereo not drawn) [Compound 11G]")
"> 60%"
>>> assay_result("Cc1ccc(CN2CCN(C(=O)NC(Cc3ccc(-c4noc(-c5ccc(NC(=O)OC(C)(C)C)cc5)n4)c(F)c3)C(=O)O)CC2)cc1 (stereo not drawn) [Compound 11Q]")
"> 60%"
>>> assay_result("COc1ccc(-c2ccc(NC(=O)NC(Cc3ccc(-c4noc(-c5ccc(NC(=O)OC(C)(C)C)cc5)n4)c(F)c3)C(=O)O)nc2)cc1 (stereo not drawn) [Compound 13Y]")
"> 60%"
>>> assay_result("CC(C)c1ccc(-c2ccc(NC(=O)NC(Cc3ccc(-c4noc(-c5ccc(NC(=O)OC(C)(C)C)cc5)n4)c(F)c3)C(=O)O)nc2)cc1 (stereo not drawn) [Compound 13O]")
"40 to 60%"

QUERY: For human GLP1R (Homo sapiens), provide activation at 10 µM of CC(C)(C)OC(=O)Nc1ccc(-c2nc(-c3ccc(CC(NC(=O)c4ccc(-c5ccc(C(F)(F)F)cc5)o4)C(=O)O)cc3F)no2)cc1 (stereo not drawn) [Compound 11O] please.
RESULT: > 60%

QUERY: For human GLP1R (Homo sapiens), provide activation at 10 µM of CC(C)(C)OC(=O)Nc1ccc(-c2nc(-c3ccc(CC(NC(=O)C4CCN(C(=O)OC(C)(C)C)CC4)C(=O)O)cc3F)no2)cc1 (stereo not drawn) [Compound 11R] please.
RESULT: > 60%

QUERY: For human GLP1R (Homo sapiens), provide activation at 10 µM of Cc1ccc(-c2ccc(C(=O)NC(Cc3ccc(-c4noc(-c5ccc(NC(=O)OC(C)(C)C)cc5)n4)c(C#N)c3)C(=O)O)o2)cc1 (stereo not drawn) [Compound 13I] please.
RESULT: 40 to 60%

QUERY: For human GLP1R (Homo sapiens), provide activation at 10 µM of CC(C)(C)OC(=O)Nc1ccc(-c2nc(-c3ccc(CC(NC(=O)N4CCN(c5ccccc5C#N)CC4)C(=O)O)cc3F)no2)cc1 (stereo not drawn) [Compound 12D] please.
RESULT: > 60%

// provenance: patent US8748412B2
